- TEST SUMMARY: Cytotoxicity against human HepG2 cells assessed as cell viability at 128 ug/ml measured by SRB assay
- Assay type: toxicity, cell-based
- MEASUREMENT CONDITIONS: dose 128 µg/ml, read-out: Activity
METRIC NAME: viability at 128 ug/ml (%)
Express the result in % but write the number alone.

INPUT: Sample C=CCc1ccc(OCCC[N+](C)(C)CCCCCC)c(-c2ccc(OCCC[N+](C)(C)CCCCCC)c(CC=C)c2)c1.[Br-].[Br-] — what was its viability at 128 ug/ml?
OUTPUT: 36.6

###

- System: Staphylococcus aureus
- TEST SUMMARY: Antibacterial activity against Staphylococcus aureus ATCC 31007
- Format: functional
METRIC NAME: MIC (µg/mL)
Express the result in µg/mL but write the number alone.

INPUT: What MIC appears in the records for this compound with Staphylococcus aureus? C=CCc1ccc(OCC(=O)NCCC[N+](C)(C)CCCCCC)c(-c2ccc(OCC(=O)NCCC[N+](C)(C)CCCCCC)c(CC=C)c2)c1.[Br-].[Br-]
OUTPUT: 16

INPUT: Also, C=CCc1ccc(OCC(=O)NC(CCCCN)C(=O)NCCCC)c(-c2ccc(OCC(=O)NC(CCCCN)C(=O)NCCCC)c(CC=C)c2)c1.O=C(O)C(F)(F)F.O=C(O)C(F)(F)F (centres undefined) please.
OUTPUT: 32

INPUT: Also, C=CCc1ccc(OCC(=O)NCCCN(C)C)c(-c2ccc(OCC(=O)NCCCN(C)C)c(CC=C)c2)c1 please.
OUTPUT: 128

INPUT: Also, C=CCc1ccc(OCCN)c(-c2ccc(OCCN)c(CC=C)c2)c1.Cl.Cl please.
OUTPUT: 16

###

- Tested on: Escherichia coli
- TEST SUMMARY: Antibacterial activity against Escherichia coli ATCC 25922
- Assay type: functional
METRIC NAME: MIC

INPUT: Sample C=CCc1ccc(O)c(-c2ccc(O)c(CC=C)c2)c1 [HONOKIOL] — what was its MIC?
OUTPUT: > 128 µg/mL

INPUT: Also, C=CCc1ccc(OCCCN)c(-c2ccc(OCCCN)c(CC=C)c2)c1.Cl.Cl please.
OUTPUT: > 128 µg/mL

INPUT: Also, C=CCc1ccc(OCC(=O)NCCC[N+](C)(C)CCCCCCCC)c(-c2ccc(OCC(=O)NCCC[N+](C)(C)CCCCCCCC)c(CC=C)c2)c1.[Br-].[Br-] please.
OUTPUT: 8 µg/mL

INPUT: Also, C=CCc1ccc(OCCC[N+](C)(C)CCCCCCCCCCCC)c(-c2ccc(OCCC[N+](C)(C)CCCCCCCCCCCC)c(CC=C)c2)c1.[Br-].[Br-] please.
OUTPUT: > 128 µg/mL

###

- Tested on: Escherichia coli
- TEST SUMMARY: Antibacterial activity against Escherichia coli ATCC 25922
- Type: functional
Give measured MIC for each item. Keep answers brief.
Express the result in µg/mL but write the number alone.

INPUT: Sample C=CCc1ccc(OCC(=O)NCCC[N+](C)(C)CCCCCCCCCC)c(-c2ccc(OCC(=O)NCCC[N+](C)(C)CCCCCCCCCC)c(CC=C)c2)c1.[Br-].[Br-] — what was its MIC?
OUTPUT: 32

INPUT: Also, C=CCc1ccc(OCC(=O)NC(CCCCN)C(=O)NCCCCCC)c(-c2ccc(OCC(=O)NC(CCCCN)C(=O)NCCCCCC)c(CC=C)c2)c1.O=C(O)C(F)(F)F.O=C(O)C(F)(F)F (stereo not drawn) please.
OUTPUT: 16

###

- Tested on: Staphylococcus aureus
- TEST SUMMARY: Antibacterial activity against Staphylococcus aureus ATCC 31007
- Type: functional
METRIC NAME: MIC (µg/mL)
Express the result in µg/mL but write the number alone.

INPUT: Sample C=CCc1ccc(OCC(=O)NC(CCCCN)C(=O)NCCCCCCCC)c(-c2ccc(OCC(=O)NC(CCCCN)C(=O)NCCCCCCCC)c(CC=C)c2)c1.O=C(O)C(F)(F)F.O=C(O)C(F)(F)F (stereo not drawn) — what was its MIC?
OUTPUT: 16

INPUT: Also, C=CCc1ccc(OCCC[N+](C)(C)CCCC)c(-c2ccc(OCCC[N+](C)(C)CCCC)c(CC=C)c2)c1.[Br-].[Br-] please.
OUTPUT: 8

INPUT: Also, C=CCc1ccc(OCCC[N+](C)(C)CCCCCCCCCC)c(-c2ccc(OCCC[N+](C)(C)CCCCCCCCCC)c(CC=C)c2)c1.[Br-].[Br-] please.
OUTPUT: 32

###

- Test system: Staphylococcus aureus
- TEST SUMMARY: Antibacterial activity against Staphylococcus aureus ATCC 31007
- Type: functional
Give measured MIC for each item. Keep answers brief.
Express the result in µg/mL but write the number alone.

INPUT: Sample C=CCc1ccc(OCC(=O)NCCC[N+](C)(C)CCCCCCCC)c(-c2ccc(OCC(=O)NCCC[N+](C)(C)CCCCCCCC)c(CC=C)c2)c1.[Br-].[Br-] — what was its MIC?
OUTPUT: 4

INPUT: Also, C=CCc1ccc(OCC(=O)NCCC[N+](C)(C)CCCC)c(-c2ccc(OCC(=O)NCCC[N+](C)(C)CCCC)c(CC=C)c2)c1.[Br-].[Br-] please.
OUTPUT: 128

INPUT: Also, C=CCc1ccc(OCC(=O)NCCCCN)c(-c2ccc(OCC(=O)NCCCCN)c(CC=C)c2)c1.O=C(O)C(F)(F)F.O=C(O)C(F)(F)F please.
OUTPUT: 64

INPUT: Also, C=CCc1ccc(OCC(=O)NC(CCCCN)C(=O)NCc2ccc(C(C)(C)C)cc2)c(-c2ccc(OCC(=O)NC(CCCCN)C(=O)NCc3ccc(C(C)(C)C)cc3)c(CC=C)c2)c1.O=C(O)C(F)(F)F.O=C(O)C(F)(F)F (stereo not given) please.
OUTPUT: 16

INPUT: Also, C=CCc1ccc(OCCC[N+](C)(C)CCCCCCCCCCCC)c(-c2ccc(OCCC[N+](C)(C)CCCCCCCCCCCC)c(CC=C)c2)c1.[Br-].[Br-] please.
OUTPUT: 128
